Biological target: human F508del-CFTR (Homo sapiens, UniProt P13569, DEL508-508)
Sequence (P13569 with tags, fused parts or gaps DEL508-508): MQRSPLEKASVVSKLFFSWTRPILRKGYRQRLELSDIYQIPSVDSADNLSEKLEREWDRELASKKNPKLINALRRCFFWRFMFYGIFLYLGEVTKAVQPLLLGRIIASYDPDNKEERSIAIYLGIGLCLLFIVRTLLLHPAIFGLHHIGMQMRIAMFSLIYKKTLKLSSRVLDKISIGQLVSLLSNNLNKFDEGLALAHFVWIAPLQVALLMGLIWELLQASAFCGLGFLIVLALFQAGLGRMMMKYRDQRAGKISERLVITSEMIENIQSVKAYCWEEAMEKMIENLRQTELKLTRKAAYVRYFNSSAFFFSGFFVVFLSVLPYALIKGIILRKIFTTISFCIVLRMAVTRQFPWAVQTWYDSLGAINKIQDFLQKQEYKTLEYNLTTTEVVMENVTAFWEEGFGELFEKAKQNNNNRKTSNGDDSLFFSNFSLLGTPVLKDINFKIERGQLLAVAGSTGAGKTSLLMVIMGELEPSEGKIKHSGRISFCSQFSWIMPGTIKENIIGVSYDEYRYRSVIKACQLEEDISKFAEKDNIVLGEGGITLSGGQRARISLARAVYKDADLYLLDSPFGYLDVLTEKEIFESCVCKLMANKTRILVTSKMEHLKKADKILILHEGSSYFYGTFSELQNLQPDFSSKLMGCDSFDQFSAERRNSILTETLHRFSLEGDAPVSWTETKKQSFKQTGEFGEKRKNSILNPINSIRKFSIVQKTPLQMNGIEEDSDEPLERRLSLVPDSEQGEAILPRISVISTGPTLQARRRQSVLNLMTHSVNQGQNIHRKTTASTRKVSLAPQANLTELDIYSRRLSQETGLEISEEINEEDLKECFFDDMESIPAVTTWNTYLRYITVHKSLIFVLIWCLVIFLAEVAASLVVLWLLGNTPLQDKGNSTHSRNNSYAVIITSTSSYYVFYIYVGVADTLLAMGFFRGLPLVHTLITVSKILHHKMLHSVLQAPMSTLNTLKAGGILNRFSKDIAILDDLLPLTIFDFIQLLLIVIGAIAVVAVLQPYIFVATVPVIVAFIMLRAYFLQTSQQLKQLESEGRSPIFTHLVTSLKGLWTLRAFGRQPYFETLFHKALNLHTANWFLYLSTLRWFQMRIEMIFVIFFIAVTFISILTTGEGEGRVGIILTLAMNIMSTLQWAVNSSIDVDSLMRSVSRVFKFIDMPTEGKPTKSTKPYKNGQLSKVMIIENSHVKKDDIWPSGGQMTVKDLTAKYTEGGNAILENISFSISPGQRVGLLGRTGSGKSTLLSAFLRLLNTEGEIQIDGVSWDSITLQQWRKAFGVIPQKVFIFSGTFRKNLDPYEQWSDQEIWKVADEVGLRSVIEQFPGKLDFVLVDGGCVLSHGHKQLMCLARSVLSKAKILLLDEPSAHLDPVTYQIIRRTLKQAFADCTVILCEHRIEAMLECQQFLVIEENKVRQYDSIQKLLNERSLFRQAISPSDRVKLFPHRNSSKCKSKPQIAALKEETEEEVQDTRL
Assay: F508del-CFTR cell surface expression (corrector activity), DiscoveRx ß-galactosidase complementation chemiluminescence assay in recombinant U2OS cell line
Details: EC50, F508del-CFTR cell surface expression, U2OS cells, 16h compound incubation; geomean values
metric: pEC50
Please treat pEC50 as minus the base-10 logarithm of the molar concentration.

Q) What pEC50 value was documented for this molecule, Cc1cc(CCNC(=O)[C@@H]2CC(=O)N(C)[C@@H](CC(C)C)C(=O)N(C[C@H]3COc4ccccc4C3)CC(=O)N[C@H](Cc3ccccc3)COc3cnc4ccccc4c3C(=O)N2)on1 [Example 704] ?
A) 6.40

Q) Any idea what its pEC50 is? The molecule is CC(C)C[C@H]1C(=O)N(C)C2(CC2)C(=O)N[C@H](Cc2ccccc2)COc2ccc3ncc(F)cc3c2C(=O)N[C@H](C(=O)NCCc2cc(C3CC3)no2)CC(=O)N1C [Example 545]
A) 6.46

Q) Returns the measured pEC50 for the input molecule. Input: Cc1cc2ccc3c(c2o1)C(=O)N[C@H](C(=O)NCCc1cc(C2CC2)no1)CC(=O)N(C)[C@@H](CC(C)C)C(=O)N(C)CC(=O)N[C@H](Cc1ccccc1)CO3 [Example 532]
A) 6.40

Q) Give the measured pEC50 of COc1cccc(CCNC(=O)[C@@H]2CC(=O)N(C)[C@@H](CC(C)C)C(=O)N3CCN(S(=O)(=O)c4ccccn4)C[C@@H]3C(=O)N[C@H](Cc3ccccc3)COc3ccc4ccccc4c3C(=O)N2)c1 [Example 747] .
A) 6.63

Q) Item under review: Cc1cc(CCNC(=O)[C@@H]2CC(=O)N(C)[C@@H](CC(C)C)C(=O)N(C)[C@H](COCc3ccccc3)C(=O)N[C@H](Cc3ccccc3)COc3ccc4ccccc4c3C(=O)N2)on1 [Example 714] . Reported pEC50?
A) 7.44

Q) Returns the measured pEC50 for the input molecule. Input: CC(C)C[C@H]1C(=O)N(C)CC(=O)N[C@H](Cc2ccccc2)COc2ccccc2C(=O)N[C@H](C(=O)NCCc2ccc3c(c2)OCCO3)CC(=O)N1C [Example 688]
A) 6.34

Q) I'd like to know its pEC50. The molecule in question is COc1cccc(CCNC(=O)[C@@H]2CC(=O)N(C)[C@@H](CC(C)C)C(=O)N3CCCC[C@H]3C(=O)N[C@H](Cc3ccccc3)COc3ccc4ccccc4c3C(=O)N2)c1 [Example 604]
A) 6.45

Q) Suppose we examine the molecule CC(C)C[C@H]1C(=O)N2CCCC[C@@H]2C(=O)N[C@H](Cc2ccccc2)COc2cnc3ccc(F)cc3c2C(=O)N[C@H](C(=O)NCCc2noc(C3CC3)n2)CC(=O)N1C [Example 637] ; what pEC50 value has been reported?
A) 6.97

---

Target: human F508del-CFTR (Homo sapiens, UniProt P13569, DEL508-508)
Experiment: F508del-CFTR cell surface expression (corrector activity), DiscoveRx ß-galactosidase complementation chemiluminescence assay in recombinant U2OS cell line;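 note: U2OS cells co-expressing ProLink-tagged F508del-CFTR and a membrane-anchored enzyme acceptor, where more surface CFTR restores β-galactosidase activity measured by chemiluminescence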
Conditions: U2OS, in relation to Emax of corrector lumacaftor (=100%); arithmetic mean values
metric: Emax (%)
Numbers only; they are read as %.

Q) What value of Emax has been reported for the following compound? COc1cccc(CCNC(=O)[C@@H]2CC(=O)N(C)[C@@H](CC(C)C)C(=O)N3CCOC[C@@H]3C(=O)N[C@H](Cc3ccccc3)COc3ccc4c(cnn4C)c3C(=O)N2)c1
A) 235

Q) Name the recorded Emax for COc1cc(CCNC(=O)[C@@H]2CC(=O)N(C)[C@@H](CC(C)C)C(=O)N(C)[C@@H](CC(F)(F)F)C(=O)N[C@H](Cc3ccccc3)COc3cc(C)nc(OC)c3C(=O)N2)on1 .
A) 261

Q) Recorded Emax of COc1cccc(CCNC(=O)[C@@H]2CC(=O)N(C)[C@@H](CC(C)C)C(=O)N3CCN(C(=O)CC(C)C)C[C@@H]3C(=O)N[C@H](Cc3ccccc3)COc3ccc4ccccc4c3C(=O)N2)c1 , please.
A) 213

Where do these numbers come from? They come from patent US20240208992A1.
